- experiment-notes: qHTS of pediatric cancer cell lines to identify multiple opportunities for drug repurposing: Primary screen for DAOY cells (AID 1347090); further: nearly all actives have a fitted effect of over 55% in size
- measurement-setup: DAOY medulloblastoma viability, CellTiter-Glo luminescence, 48 h; series mostly up to 46 µM
Inconclusive results are not listed. Calls of active or inactive are those of the source. The call rests on the fitted dose curve; in most records, active means well fitted cell-killing curve with a large enough effect; inconclusive means small, poorly fitted or top-dose-only effect; inactive means flat fitted curve, though single readings scatter.
Outcomes: 1 (yes) = active, 0 (no) = inactive

[[record]]
smi = "CN(C)NC(=O)CCC(=O)O"
label_class = "0 (no)"

[[record]]
smi = "C[C@H]([C@H](O)CCC(C)(C)O)[C@H]1CC[C@@]2(O)C3=CC(=O)[C@@H]4C[C@@H](O)[C@@H](O)C[C@]4(C)[C@@H]3CC[C@]12C"
label_class = "0 (no)"

[[record]]
smi = "CN[C@@H]1Cc2cccc3[nH]c(=O)n(c23)C1"
label_class = "0 (no)"

[[record]]
smi = "CC(=O)Nc1ccc(OC[C@](C)(O)C(=O)Nc2ccc([N+](=O)[O-])c(C(F)(F)F)c2)cc1"
label_class = "0 (no)"

[[record]]
smi = "CN(C)[C@@H]1C(=O)C(C(N)=O)=C(O)[C@@]2(O)C(=O)C3=C(O)c4c(O)cccc4[C@@](C)(O)[C@H]3[C@H](O)[C@@H]12"
label_class = "0 (no)"

[[record]]
smi = "CC[N+]1(CCOC(=O)C(O)(c2ccccc2)c2ccccc2)CCCCC1"
label_class = "0 (no)"

[[record]]
smi = "COc1cccc2c1[C@]13CCN(CC4CC4)[C@H](C2)[C@]1(OC)CCC(=O)C3"
label_class = "0 (no)"

[[record]]
smi = "O=C(O)CNC(=O)c1c(O)c2ccccc2n(Cc2ccccc2)c1=O"
label_class = "0 (no)"

[[record]]
smi = "CCOC(=O)c1cncn1[C@H](C)c1ccccc1"
label_class = "0 (no)"

[[record]]
smi = "Cc1ccc(Cl)c(O)c1"
label_class = "0 (no)"

[[record]]
smi = "CCC1(CCC(C)C)C(=O)NC(=O)NC1=O"
label_class = "0 (no)"

[[record]]
smi = "Cc1ccccc1-n1c(Cn2cnc3c(N)ncnc32)nc2cccc(C)c2c1=O"
label_class = "1 (yes)"

[[record]]
smi = "C[C@]12COC(=O)C[C@@H]1CC[C@@H]1[C@H]2CC[C@@]2(C)[C@H]1CC[C@]2(C)O"
label_class = "0 (no)"

[[record]]
smi = "O=[N+]([O-])c1cc([N+](=O)[O-])c2ccccc2c1"
label_class = "0 (no)"

[[record]]
smi = "O=c1[nH]c2ccccc2n1C1CCN(Cc2ccc(-c3[nH]c4cc5ncnc5cc4nc3-c3ccccc3)cc2)CC1"
label_class = "0 (no)"

[[record]]
smi = "C[C@]12Cc3cn[nH]c3C[C@@H]1CC[C@@H]1[C@H]2CC[C@@]2(C)[C@H]1CC[C@]2(C)O"
label_class = "0 (no)"

[[record]]
smi = "Cc1c(C(=O)c2cccc3ccccc23)c2cccc3c2n1[C@H](CN1CCOCC1)CO3"
label_class = "1 (yes)"

[[record]]
smi = "C=C1C[C@H]2[C@H]3CCC(=O)[C@@]3(C)CC[C@@H]2[C@@]2(C)C=CC(=O)C=C12"
label_class = "0 (no)"

[[record]]
smi = "Nc1ccc(Cl)cc1N"
label_class = "0 (no)"

[[record]]
smi = "CC1(N2CCC(n3c([C@@H]4CCCNC4)nc4ccccc43)CC2)CCCCCCC1"
label_class = "0 (no)"

